# procedure-details: yeast display, Sf9 membrane polyspecificity reagent, FACS + sequencing; frameworks hold sequencing errors
measured-parameter: polyreactivity (PSR sort gate)

Some sequences with known polyreactivity (PSR sort gate) results, for comparison:
>>> result("QVQLVESGGGLVQAGGSLRLSCAASGSTFWFYAMGWYRQAPGTERELVAVISNSGSTYYADSVKGRFTISRDNAKNTVYLQMNSLKPEDTEVYYCNKDGGGDSYWYDYWGQGTQVTVSS")
"low polyreactivity"
>>> result("QVQLVESGGGLVQAGGSLRLSCAASGSIVSYYAMGWYRQAPGIERELVAAITTRGGRSYYADSVMGRFTISRDYAKNTVYLPMNSLKPEDTAVYYFNRYPGYIQGDYDYWGQGTQVTVSS")
"high polyreactivity"
>>> result("QVQLVESGGGLDQAGGSLRLTCAASGFIIHRYAMAWYRQGPGTEMELVAAISRSGVSTNYADSVKGRFTISRDNPKNTVYLHMYSLKTEDTSVYYCASPYYSYQSYKYWGKGTQVTVSS")
"high polyreactivity"
>>> result("QVPLEESGGGLVQAGGSLRLSCAASGSIFMTYSMGWYRKAPGNERELVAAISWRGGSTYYADSVKGRFTISRDNAKNTVYLQMNSMKPVDTAVYYCAADYYRYGYQGSTTEDDYWGQGTLVTVSS")
"low polyreactivity"

Query string: Give the measured polyreactivity (PSR sort gate) of "QVQLVESGGGLVQAGGSLRLSCAASGFIFNVYAMGWYRQAPGKERELVAAISQRGGRTYYADSVKGRFTISRDNAKNTVYLQMNSLKPEDTAVYYCKLFYPKHGYWGQGTQVTVSS" .
Result string: high polyreactivity

Query string: Give the measured polyreactivity (PSR sort gate) of "QVQLVESGGGLVQAGGSLRLSCAASGSTFVYNDMGWYRQAPGKEREFVAAITYSGSTYYADSVNGRFTISRDNAKNTVYLQMNSLKPEDTAVYYCNADPRRPVTSYDYWGQGTQVTVSS" .
Result string: low polyreactivity

Query string: Give the measured polyreactivity (PSR sort gate) of "QVQLVESGGGLVQAGGTLRLSCAASGFTFRYYAMGWYRQAPGKERELVAAISRGGTTNYADSVKGRFTISRDNAKNTVYLQMNSLKPEDTAVYYCAARQYYSRVTYDYWGQGTQVTVSS" .
Result string: high polyreactivity

---

# procedure-details: yeast display, Sf9 membrane polyspecificity reagent, FACS + sequencing; frameworks hold sequencing errors
measured-parameter: polyreactivity (PSR sort gate)

>>> result("QVQLVESGGGLVQAGGSLRLSCAASGRIFGYNAMGWYRQAPGKVRELVAAITTSGGSTYYADSVTGRFTISRDTAKNTVYLQMNSLKPEDTAVYYCARDSLQVFYQYASDDYWGQGTQVTVSS")
"low polyreactivity"
>>> result("QVQLVESGGGLVQAGGSLRLICAASGFIIYSYAMGWYRQAPGKERELVAGITSDGRTYYADSVKGRFTISRDNAKNTVYLQMNSQKPEDTAVSYCAARYYLFYRVSPYYYWGQGTQVTVSS")
"low polyreactivity"

---

# procedure-details: yeast display, Sf9 membrane polyspecificity reagent, FACS + sequencing; frameworks hold sequencing errors
measured-parameter: polyreactivity (PSR sort gate)

>>> result("QVQLVESGGGLVQAGGSLRVSCGASGRTFLFYAMGWYRQAPGKERELVASITGRGGRTSYADSEKGRFTISRDNAKNTVYLQKNSLKPEDTAVYYCAARNPYTSTYYDWGQGTQETVSS")
"high polyreactivity"
>>> result("QVHLVESGGGLVQAGGSLRLSSAAYGRTFKYNAMGWYRQAPGKRKELVAAISSGGSTYYADSVKGRFTISRDNAKKTVYFQMNSLKPEDTAVYYCAVRNTKSYWFGYWGQGTQVTVSS")
"high polyreactivity"

---

# procedure-details: yeast display, Sf9 membrane polyspecificity reagent, FACS + sequencing; frameworks hold sequencing errors
measured-parameter: polyreactivity (PSR sort gate)

Some sequences with known polyreactivity (PSR sort gate) results, for comparison:
>>> result("QVQLVESGGGLVQAGGSLRLSCAASGRTFRFYAMGWYRQAPGKERELVAAITYRGGTYYADSVKGRFTISRDNAKNTVYLQMNSLKPEDTAVYYCAVKPSGWSGMDYWGQGTQVTVSS")
"high polyreactivity"
>>> result("QVQLVESGGGLVQAGGSLRLSCAASGSIFDRYAMGWYRQAPGKERELVAAISTGGSTNYADSVKGRFTISRDNAKNTVYLQMNSLKPEDTAVYYCAAERYWVFHGTISYKYDYWGQGTQVTVSS")
"low polyreactivity"
>>> result("QVQLVDSGGGLVQARGTLRLSCAASGSTFRVYAMGWYRQAPGKEMELVAAISSSGGITYYADSVKGRFPISRDNAKNSVYLQMNSLKPEDTEVYYCAKGTVIHVLYDYWGQGTQVTVSS")
"low polyreactivity"
>>> result("QVQLVESGGGLVQAGGSLRLSCAASGSTFPGNAMGWYRQAPGKERELVASIRRSGGSTYYADSVKGRFTISRDNAKNTVYLQMNSLKPADTAVDDCAKRTFLVSGPRSYGCYGVYYWGQGTQVTVSS")
"high polyreactivity"

Query string: Give the measured polyreactivity (PSR sort gate) of "QVQLVESRRGLVQAGGSIRLSCAASGSTFPYNAMGWYRQAPGKDRELVAAITSAGGTNYADSVKGRFTISRDNAKNSVYLQMNSLKPEDSAVYSCAAVGSGYYDGYFYWGQGTQVTVSS" .
Result string: low polyreactivity

---

# procedure-details: yeast display, Sf9 membrane polyspecificity reagent, FACS + sequencing; frameworks hold sequencing errors
measured-parameter: polyreactivity (PSR sort gate)

Some sequences with known polyreactivity (PSR sort gate) results, for comparison:
>>> result("QVQLVESGGGLVQAGGSLRLSSTASGSTIVAYAMGWYRQAPGKERELVAAITSSGGRTYYADSVKGRFTISRDNAKNSVYLQMNSLKPEDTAVYYCAAVTHGRYDWGQGTQVTVSS")
"high polyreactivity"
>>> result("QVQHVESGAGLVQAGGSLRLSCAASGLILVYYAMGWYRQAPGKEREFVAAITPGGSTKYADSVKGRFTISRDNAKNTVYLQMNSLKPEDTAVYYCNALSGPYWYSVYQYHQDDYWGQGTQVTVSS")
"low polyreactivity"
>>> result("QVQLVESGGGLVQAGGSLRLSCAASGRIFGLYAMGWYRQAPGKERELVAAITDSDGSTYYADSVKGRFTISRDNAKNTVYLQMNSLKPEDTAVYYCNKRLPLIRTSWAYDYWGQGTQVTVSS")
"low polyreactivity"
>>> result("QVQLVESGGGLVQAGGSLRLSCAASGRIFRAYAMGWYRQAPGKERELVAAIRGRGGSTYADSVKGRFTISRDNAKNTVYLQMNSLKPEDTAVYYCAAGYYRYAWPYYGGRDYWGQGTQVTVSS")
"high polyreactivity"

Query string: Give the measured polyreactivity (PSR sort gate) of "QVQLVESGGGLVQAGCSLRLSCAASGSTFRKYAMGWYRQAPGKEREFVAAITWSTGTTYYADSVKGRFTISRDNAKNTVYLQMNSLKPEDTAVYYFAADSQPPHELYESIEHESWGQGTQVTVSS" .
Result string: low polyreactivity

Query string: Give the measured polyreactivity (PSR sort gate) of "QVQLVESGGGLVQAGGSLRLSCAASGIIFPSYVMGWYRQAPGKERELVAVITWSGGSTYYADSVKGRFTISRDNAKNTVYLQMNSLKPEDTAVYYCARRRRWVHSFDYWGQGTQVTVSS" .
Result string: high polyreactivity

Query string: Give the measured polyreactivity (PSR sort gate) of "QVQLVESGGGLVQAGGSLRLSCAASGRTFVRNAMGWYRQAPGKERELVAAITRSGGSTYYADSVKGRFTISRDNAKNTVYLQMNSLKPEDTAVYYCSARPPYRVGIVPLGRREYYWGQGTQVTVSS" .
Result string: high polyreactivity

Query string: Give the measured polyreactivity (PSR sort gate) of "QVQLVESGGGLVQAGGSLRLICAASGSTFGLNTMGWYRQAPGKDRELVAGITWSGGTTYYADSVKGRFTISRDNAKNTVYLQMNSLKPEDTAVYYCAAAVCDHYWYSRAYYYWGQGTQVTLSS" .
Result string: high polyreactivity

Query string: Give the measured polyreactivity (PSR sort gate) of "QLQLVESGGGLVQAGGSLRLSCAASGRTFSIYAMGWSRQATGKERELVAAIRWSGGSTYYADSVKGRFTISRDNAKNSVYLQMNSLKPEDTAVYYCATRSRGLKFDYWGQGTLVTVSS" .
Result string: high polyreactivity

Query string: Give the measured polyreactivity (PSR sort gate) of "QVQLVESGGGLVQAGGSLRLSCAASGRTFRLYAMGWYRQAPGKERELVAAIDGNGGSTYYADSVKGRFTISRDNAKNTVYLQMNSLKPEDTAVYYCAVSVSVYLDYRRDHQRGYDYWGQGTQVTVSS" .
Result string: low polyreactivity

Query string: Give the measured polyreactivity (PSR sort gate) of "QVQLVESGGGLVQAGGSLRLSCAASGFIFSDYAMGWYRQAPGKERELVAGISDSGGDTYYADSVKGRFTISRDNAKYTVYFQMYSLKPDDTAVYYCAADVELWVFRGQQYDYWGQGTQVTVSS" .
Result string: low polyreactivity

Origin of the recorded values: the nanobody polyreactivity screen of Harvey et al. (2022)
